conditions: in ethyl acetate, 308.15 K

# Smiles Entry, solubility (mole fraction)
measured = [
    ("O=C(O)C=CC(=O)O.OCCOCCN1CCN(C2=Nc3ccccc3Sc3ccccc32)CC1.OCCOCCN1CCN(C2=Nc3ccccc3Sc3ccccc32)CC1", 0.000255),
]

* * *

details: in isopropanol, 303.15 K
Quantity Kind: solubility (mole fraction)

# Smiles Entry, Quantity Kind, Result
rows = [
    ("O=C(O)C=CC(=O)O.OCCOCCN1CCN(C2=Nc3ccccc3Sc3ccccc32)CC1.OCCOCCN1CCN(C2=Nc3ccccc3Sc3ccccc32)CC1", "solubility (mole fraction)", 0.000251),
]

* * *

details: in isopropanol, 313.15 K
Quantity Kind: solubility (mole fraction)

# Smiles Entry, Quantity Kind, Result
data = [
    ("O=C(O)C=CC(=O)O.OCCOCCN1CCN(C2=Nc3ccccc3Sc3ccccc32)CC1.OCCOCCN1CCN(C2=Nc3ccccc3Sc3ccccc32)CC1", "solubility (mole fraction)", 0.00036),
]

* * *

details: in methanol, 313.15 K

# Smiles Entry, solubility (mole fraction)
data = [
    ("O=C(O)C=CC(=O)O.OCCOCCN1CCN(C2=Nc3ccccc3Sc3ccccc32)CC1.OCCOCCN1CCN(C2=Nc3ccccc3Sc3ccccc32)CC1", 0.00163),
]

* * *

settings: in isopropanol, 288.15 K

# Smiles Entry, solubility (mole fraction)
rows = [
    ("O=C(O)C=CC(=O)O.OCCOCCN1CCN(C2=Nc3ccccc3Sc3ccccc32)CC1.OCCOCCN1CCN(C2=Nc3ccccc3Sc3ccccc32)CC1", 0.000126),
]

* * *

conditions: in isobutanol, 308.15 K

# Smiles Entry, solubility (mole fraction)
records = [
    ("O=C(O)C=CC(=O)O.OCCOCCN1CCN(C2=Nc3ccccc3Sc3ccccc32)CC1.OCCOCCN1CCN(C2=Nc3ccccc3Sc3ccccc32)CC1", 0.000251),
]

* * *

details: in water, 293.15 K

# Smiles Entry, solubility (mole fraction)
rows = [
    ("O=C(O)C=CC(=O)O.OCCOCCN1CCN(C2=Nc3ccccc3Sc3ccccc32)CC1.OCCOCCN1CCN(C2=Nc3ccccc3Sc3ccccc32)CC1", "6.73e-05"),
]

* * *

details: in isopropanol, 308.15 K
Quantity Kind: solubility (mole fraction)

# Smiles Entry, Quantity Kind, Numeric Result
rows = [
    ("O=C(O)C=CC(=O)O.OCCOCCN1CCN(C2=Nc3ccccc3Sc3ccccc32)CC1.OCCOCCN1CCN(C2=Nc3ccccc3Sc3ccccc32)CC1", "solubility (mole fraction)", 0.000289),
]

* * *

details: in water, 313.15 K

# Smiles Entry, solubility (mole fraction)
data = [
    ("O=C(O)C=CC(=O)O.OCCOCCN1CCN(C2=Nc3ccccc3Sc3ccccc32)CC1.OCCOCCN1CCN(C2=Nc3ccccc3Sc3ccccc32)CC1", 0.000108),
]

* * *

conditions: in DMF, 288.15 K

# Smiles Entry, solubility (mole fraction)
rows = [
    ("O=C(O)C=CC(=O)O.OCCOCCN1CCN(C2=Nc3ccccc3Sc3ccccc32)CC1.OCCOCCN1CCN(C2=Nc3ccccc3Sc3ccccc32)CC1", 0.00369),
]

* * *

details: in DMF, 293.15 K

# Smiles Entry, solubility (mole fraction)
records = [
    ("O=C(O)C=CC(=O)O.OCCOCCN1CCN(C2=Nc3ccccc3Sc3ccccc32)CC1.OCCOCCN1CCN(C2=Nc3ccccc3Sc3ccccc32)CC1", 0.00419),
]
